Source listed as ChEMBL document CHEMBL1145212.

Species: Rattus norvegicus
Assay: Regional uptake of [18F]-AFA in blood of rat pretreated with compound GBR-12935; n=3
Assay type: functional, organism-based
Settings: tested as the 18F-labelled form
This listing pairs compounds with measured Uptake.
Write down the value, and be sure its unit follows.

// query Uptake value for entry CN(C)Cc1ccccc1Sc1ccc(F)cc1N
0.09 %ID/g

Please give the measured Uptake for this compound: CN(C)Cc1ccccc1Sc1ccc(CCCF)cc1N
0.09 %ID/g

Value lookup for Uptake; key = CN(C)Cc1ccccc1Sc1ccc(CF)cc1N
0.11 %ID/g

Looking for the measured Uptake of CN(C)Cc1ccccc1Sc1ccc(CCF)cc1N , can you help?
0.06 %ID/g

====

This section presents compounds with their documented Specific binding (dimensionless ratio) values.
Molecular target: Sodium-dependent serotonin transporter (Rattus norvegicus)
Experiment: Specific binding in rat hypothalamus at 120 min postinjection in vivo
Assay type: functional, organism-based
Conditions: tested as the 18F-labelled form
The reply should be a number, written without any unit.

Observe how each entry below is paired with its result.
INSERT INTO measurements (structure_as_smiles, assay_endpoint, value_reported) VALUES
  ('CN(C)Cc1ccccc1Sc1ccc(CCF)cc1N', 'Specific binding (dimensionless ratio)', 4.5),
  ('CN(C)Cc1ccccc1Sc1ccc(CCCF)cc1N', 'Specific binding (dimensionless ratio)', 2.4);

So what Specific binding (dimensionless ratio) did CN(C)Cc1ccccc1Sc1ccc(CF)cc1N get with Sodium-dependent serotonin transporter (Rattus norvegicus)?
8.37

Give recorded Specific binding (dimensionless ratio) with Sodium-dependent serotonin transporter (Rattus norvegicus) for the following compound: CN(C)Cc1ccccc1Sc1ccc(F)cc1N
4.92

====

Ki for assorted molecules
Target: UniProtKB Q01959
Sequence (Q01959 whole entry): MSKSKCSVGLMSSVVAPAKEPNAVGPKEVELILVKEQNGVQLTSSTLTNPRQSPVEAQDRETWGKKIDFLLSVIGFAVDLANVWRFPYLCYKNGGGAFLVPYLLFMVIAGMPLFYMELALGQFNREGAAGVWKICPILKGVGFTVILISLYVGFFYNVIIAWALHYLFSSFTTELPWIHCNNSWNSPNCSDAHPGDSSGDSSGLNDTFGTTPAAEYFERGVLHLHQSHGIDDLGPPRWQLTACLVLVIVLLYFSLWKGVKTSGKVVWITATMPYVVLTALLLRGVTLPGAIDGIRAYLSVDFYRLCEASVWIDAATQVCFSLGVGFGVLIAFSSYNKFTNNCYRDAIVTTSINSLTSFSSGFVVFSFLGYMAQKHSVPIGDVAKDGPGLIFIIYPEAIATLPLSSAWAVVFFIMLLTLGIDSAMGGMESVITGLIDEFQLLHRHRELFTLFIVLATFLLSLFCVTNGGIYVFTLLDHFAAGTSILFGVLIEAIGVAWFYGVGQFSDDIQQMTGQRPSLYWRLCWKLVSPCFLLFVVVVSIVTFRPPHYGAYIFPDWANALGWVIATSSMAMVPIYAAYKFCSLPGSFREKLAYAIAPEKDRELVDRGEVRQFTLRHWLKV
Give just the number in µM; leave the unit off.

INSERT INTO assay_data (structure_as_smiles, value_reported) VALUES
  ('Cc1ccc(Sc2ccccc2CNCCF)c(N)c1', 4.43),
  ('CN(C)Cc1ccccc1Sc1ccc(CO)cc1N', 3.61),
  ('CCCNCc1ccccc1Sc1ccc(C)cc1N', 3.55);

Here is another molecule to look at.
Need Ki, item C=CCNCc1ccccc1Sc1ccc(C)cc1N
2.91

====

Species: Rattus norvegicus
Experiment: Regional uptake of [18F]AFA in cerebellum of rat pretreated with compound citalopram; n=3
Type: functional, organism-based
Conditions: tested as the 18F-labelled form
Assay endpoint: Uptake (%ID/g)
Write down the numeric answer in %ID/g and omit the unit.

INSERT INTO measurements (structure_as_smiles, assay_endpoint, value_reported) VALUES
  ('CN(C)Cc1ccccc1Sc1ccc(CF)cc1N', 'Uptake', 0.08),
  ('CN(C)Cc1ccccc1Sc1ccc(CCF)cc1N', 'Uptake', 0.06),
  ('CN(C)Cc1ccccc1Sc1ccc(F)cc1N', 'Uptake', 0.06);

Could you now consider this next molecule?
Give its Uptake value. Item: CN(C)Cc1ccccc1Sc1ccc(CCCF)cc1N
0.08

====

Recorded Specific binding values for a group of compounds are listed next.
Target: Sodium-dependent serotonin transporter (Rattus norvegicus)
Assay: Specific binding in rat hypothalamus at 30 min postinjection in vivo
Assay type: functional, organism-based
Settings: tested as the 18F-labelled form
Field: numeric (%ID/g). Do not append units.

Solved cases (3 shown):
INSERT INTO measurements (structure_as_smiles, unit_text, value_reported) VALUES
  ('CN(C)Cc1ccccc1Sc1ccc(CCCF)cc1N', '%ID/g', 0.57),
  ('CN(C)Cc1ccccc1Sc1ccc(F)cc1N', '%ID/g', 2.23),
  ('CN(C)Cc1ccccc1Sc1ccc(CF)cc1N', '%ID/g', 2.27);

// below: Specific binding requested for another compound
Requested read-out: Specific binding. Entry: CN(C)Cc1ccccc1Sc1ccc(CCF)cc1N
2.22
